For each entry below, report its Ratio value.
# studySystem: Muscarinic acetylcholine receptors; M2 & M3 (Homo sapiens) (UniProt P20309+P08172)
# testDescription: Selectivity ratio between Kb values of M2-receptor (atria) and M3-receptor (ileum)
# Assay type: tissue-based
# conditionParameters: Cavia porcellus
Kindly provide the number alone.

Can you look up the measured Ratio of "CCc1nccn1CCC(C(N)=O)(c1ccccc1)c1ccccc1" for me? 3.3

Record: "CCCc1nccn1CCC(C(N)=O)(c1ccccc1)c1ccccc1" 1.44

Here is the next molecule: "NC(=O)C(CCn1ccnc1)(c1ccccc1)c1ccccc1" 13.5

Next molecule up: "Cc1cccc(C[n+]2ccn(CCC(C(N)=O)(c3ccccc3)c3ccccc3)c2C)c1" 4.6

Next molecule: "Cc1nccn1CCCC(C(N)=O)(c1ccccc1)c1ccccc1" 17.6

Query "Cc1nccn1CCCCC(C(N)=O)(c1ccccc1)c1ccccc1" next 3.39

Cool, now "Cc1n(CCC(C(N)=O)(c2ccccc2)c2ccccc2)cc[n+]1C" 1.68

Check "Cc1nccn1CCC(C(N)=O)(c1ccccc1)c1ccccc1" too. 13

"CCC[n+]1ccn(CCC(C(N)=O)(c2ccccc2)c2ccccc2)c1C" ? 3.02

Same read-out for "Cc1n(CCC(C(N)=O)(c2ccccc2)c2ccccc2)cc[n+]1Cc1cccc(Cl)c1" ? 4.36

Next molecule: "Cc1n(CCCCC(C(N)=O)(c2ccccc2)c2ccccc2)cc[n+]1Cc1ccccc1" 26.2

Try the molecule "Cc1n(CCC(C(N)=O)(c2ccccc2)c2ccccc2)cc[n+]1Cc1ccccc1Cl" 5.67

Same for "CCCc1n(CCC(C(N)=O)(c2ccccc2)c2ccccc2)cc[n+]1C" 1.74

Now consider "Cc1n(CCCC(C(N)=O)(c2ccccc2)c2ccccc2)cc[n+]1Cc1ccccc1" and answer again. 9.94

Further, for "Cc1n(CCC(C(N)=O)(c2ccccc2)c2ccccc2)cc[n+]1Cc1ccc(Cl)cc1" ? 9.32

Could you do the same for "Cc1ccccc1C[n+]1ccn(CCC(C(N)=O)(c2ccccc2)c2ccccc2)c1C" , please? 2.24

// query: "CCc1n(CCC(C(N)=O)(c2ccccc2)c2ccccc2)cc[n+]1C" 4.11

Same question for "CC(C)(C)c1nccn1CCC(C(N)=O)(c1ccccc1)c1ccccc1" please. 2.45

Consider next the molecule "Cc1n(CCC(C(N)=O)(c2ccccc2)c2ccccc2)cc[n+]1Cc1ccc(-c2ccccc2)cc1" in the same way. 24.8

Subsequent entry: "Cc1n(CCC(C(N)=O)(c2ccccc2)c2ccccc2)cc[n+]1Cc1ccc(Br)cc1" 22.1

What about "Cc1n(CCC(C(N)=O)(c2ccccc2)c2ccccc2)cc[n+]1Cc1ccc([N+](=O)[O-])cc1" ? 5.28

---

# studySystem: Muscarinic acetylcholine receptors; M2 & M3 (Homo sapiens) (UniProt P20309+P08172)
# testDescription: Selectivity ratio between Kb values of M2-receptor (atria) and M3-receptor (ileum)
# Assay type: tissue-based
# conditionParameters: Cavia porcellus
property: Ratio

Any idea what its Ratio is? The compound is "Cc1ccc(C[n+]2ccn(CCC(C(N)=O)(c3ccccc3)c3ccccc3)c2C)cc1" 7.15

Also need "Cc1n(CCC(C(N)=O)(c2ccccc2)c2ccccc2)cc[n+]1Cc1ccccc1" , thanks. 13.5

Same question, "CC[n+]1ccn(CCC(C(N)=O)(c2ccccc2)c2ccccc2)c1C" this time 1.3

Ok, now "CCCC[n+]1ccn(CCC(C(N)=O)(c2ccccc2)c2ccccc2)c1C" 5.83

---

# studySystem: Muscarinic acetylcholine receptor M3 (Cavia porcellus) (UniProt Q8VH26)
# Sequence (Q8VH26 1-587): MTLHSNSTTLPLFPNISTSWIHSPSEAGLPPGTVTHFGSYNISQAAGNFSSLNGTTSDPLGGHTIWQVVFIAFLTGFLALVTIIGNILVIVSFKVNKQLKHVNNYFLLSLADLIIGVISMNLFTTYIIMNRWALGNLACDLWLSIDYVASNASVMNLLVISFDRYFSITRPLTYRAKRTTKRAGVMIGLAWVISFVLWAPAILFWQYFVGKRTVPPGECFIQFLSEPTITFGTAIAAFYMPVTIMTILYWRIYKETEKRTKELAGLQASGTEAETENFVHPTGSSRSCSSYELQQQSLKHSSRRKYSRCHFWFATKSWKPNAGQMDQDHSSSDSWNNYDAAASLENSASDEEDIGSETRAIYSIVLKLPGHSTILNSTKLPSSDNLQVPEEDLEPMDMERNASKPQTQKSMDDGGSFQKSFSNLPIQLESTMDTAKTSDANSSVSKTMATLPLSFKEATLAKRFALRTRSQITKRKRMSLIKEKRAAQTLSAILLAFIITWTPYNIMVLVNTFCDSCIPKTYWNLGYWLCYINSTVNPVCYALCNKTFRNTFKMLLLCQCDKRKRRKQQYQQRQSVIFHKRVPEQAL
# testDescription: Antimuscarinic activity against muscarinic acetylcholine M3-receptor in guinea pig ileum
# Format: tissue-based
// classify(record): look up Kb in ranges label 0 = under 1 nM, label 1 = from 1 nM up to 5 nM, label 2 = 5 nM and over

Band for the recorded Kb of "Cc1n(CCC(C(N)=O)(c2ccccc2)c2ccccc2)cc[n+]1C" ? label 1

Ok, now "CCCC[n+]1ccn(CCC(C(N)=O)(c2ccccc2)c2ccccc2)c1C" label 1

Now this one: "Cc1cccc(C[n+]2ccn(CCC(C(N)=O)(c3ccccc3)c3ccccc3)c2C)c1" label 1

# iterate: "Cc1ccccc1C[n+]1ccn(CCC(C(N)=O)(c2ccccc2)c2ccccc2)c1C" label 2

Another: "Cc1n(CCC(C(N)=O)(c2ccccc2)c2ccccc2)cc[n+]1Cc1cccc(Cl)c1" label 2

Can you handle "Cc1n(CCC(C(N)=O)(c2ccccc2)c2ccccc2)cc[n+]1Cc1ccc([N+](=O)[O-])cc1" next? label 0

Cool, now "CC[n+]1ccn(CCC(C(N)=O)(c2ccccc2)c2ccccc2)c1C" label 2

// same read-out, input: "Cc1n(CCC(C(N)=O)(c2ccccc2)c2ccccc2)cc[n+]1Cc1ccccc1Cl" label 2

Repeat with "Cc1n(CCCC(C(N)=O)(c2ccccc2)c2ccccc2)cc[n+]1Cc1ccccc1" label 0

Same again, this time with "CCC[n+]1ccn(CCC(C(N)=O)(c2ccccc2)c2ccccc2)c1C" label 1

Would you kindly repeat that for "Cc1n(CCC(C(N)=O)(c2ccccc2)c2ccccc2)cc[n+]1Cc1ccc(Br)cc1" ? label 0

Another compound to look at: "Cc1n(CCC(C(N)=O)(c2ccccc2)c2ccccc2)cc[n+]1Cc1ccc(-c2ccccc2)cc1" label 1

Quick one: "CCc1n(CCC(C(N)=O)(c2ccccc2)c2ccccc2)cc[n+]1C" label 1

Repeat with "Cc1n(CCC(C(N)=O)(c2ccccc2)c2ccccc2)cc[n+]1Cc1ccc(Cl)cc1" label 0

Now try "CCCc1n(CCC(C(N)=O)(c2ccccc2)c2ccccc2)cc[n+]1C" . label 2

Note, next up: "Cc1n(CCCCC(C(N)=O)(c2ccccc2)c2ccccc2)cc[n+]1Cc1ccccc1" label 0

The reported numbers originate from ChEMBL document CHEMBL1131854.
